meta.source: PubChem BioAssay AID1963840

tested on: 695427-040-R-J1-PDC complex spheroid viability; assay: Anticancer human tumor 695427-040-R-J1-PDC patient-derived colon adenocarcinoma cell line growth inhibition [POLQ]; conditions: second compound 1 µM; first compound 3.16 µM; stronger effect = lower value;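 further: spheroids exposed to compounds for seven days; 100% = DMSO vehicle control viability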
result_type: viability, T/C (%)
API: value field is a number in %; no unit string.

- compound: "O=c1[nH]cc(F)c(=O)[nH]1 + COC1C(OC(N)=O)C(O)C(Oc2ccc3c(O)c(NC(=O)c4ccc(O)c(CC=C(C)C)c4)c(=O)oc3c2C)OC1(C)C"
  test_target: "695427-040-R-J1-PDC complex spheroid viability"
  viability, T/C / %: 97.6
- compound: "COc1cc(C2c3cc4c(cc3C(OC3OC5COC(C)OC5C(O)C3O)C3COC(=O)C23)OCO4)cc(OC)c1O (stereo unspecified) + COC1C(OC(N)=O)C(O)C(Oc2ccc3c(O)c(NC(=O)c4ccc(O)c(CC=C(C)C)c4)c(=O)oc3c2C)OC1(C)C"
  test_target: "695427-040-R-J1-PDC complex spheroid viability"
  viability, T/C / %: 96.4
- compound: "CC(C)n1c(=O)n(C)c2cnc3cc(F)c(-c4ccc(OCCCN5CCCCC5)nc4)cc3c21 + Cc1cccc(N(C)C(=O)C2C(O)CCN2c2nc(C)cc(C(F)(F)F)c2C#N)c1"
  test_target: "695427-040-R-J1-PDC complex spheroid viability"
  viability, T/C / %: 102

Value of measured viability, T/C for the entry COc1cccc2c1C(=O)c1c(O)c3c(c(O)c1C2=O)CC(O)(C(=O)CO)CC3OC1CC(N)C(O)C(C)O1 (stereo unspecified) + COC1C(OC(N)=O)C(O)C(Oc2ccc3c(O)c(NC(=O)c4ccc(O)c(CC=C(C)C)c4)c(=O)oc3c2C)OC1(C)C : 68.3
